Test Target: D(3) dopamine receptor (Homo sapiens)
Experiment Description: qHTS of D3 Dopamine Receptor Agonist: qHTS
Condition: D3R DiscoveRx beta-arrestin cells, luminescence, 90 min
Screen size: about 410,000 compounds; about 2,400 (0.59%) were called active. Cut-off read from the data, not from the text of the source: active = max activation above about 30%; inactive = the rest. Many of the other results were omitted from the sample, so actives are more common in it than they were.
Respond with a class label; see true (1) (active), false (0) (inactive)

>>> qualitative_label("Cc1c(C=O)c2ccccn2c1C(=O)c1ccncc1")
"true (1)"
>>> qualitative_label("CCOC(=O)Cc1cccc(-c2cc(CCCCCCc3ccc(O[C@H]4O[C@H](COC(C)=O)[C@@H](OC(C)=O)[C@H](OC(C)=O)[C@@H]4OC(C)=O)c(-c4cccc(CC(=O)OCC)c4)c3)ccc2O[C@H]2O[C@H](COC(C)=O)[C@@H](OC(C)=O)[C@H](OC(C)=O)[C@@H]2OC(C)=O)c1")
"false (0)"
>>> qualitative_label("CC1CCCCN1CC(=O)N1CCCc2c1c(=O)oc1ccc(OCc3ccccc3)cc21 (stereo not drawn)")
"false (0)"
>>> qualitative_label("COC(=O)c1ccc(NC(=O)c2ccccc2NS(=O)(=O)c2ccccc2)cc1")
"true (1)"
>>> qualitative_label("CCC(=O)N1c2ccccc2CC1C(=O)N1CCN(c2ccccc2)CC1 (stereo not drawn)")
"false (0)"

Dear colleague, could you share the recorded outcome for `CCN1CCN(C(=O)Cn2nc(C)n3c(cc4c(OC)cccc43)c2=O)CC1` when you have a moment?
true (1)

Dear colleague, could you share the recorded outcome for `CCOc1cc(/C=C(\C#N)C(=O)Nc2ccccc2C)ccc1OCc1cc(=O)n2nc(CC)sc2n1` when you have a moment?
false (0)

Dear colleague, could you share the recorded outcome for COc1ccc(C(=O)NC2CCCc3c2cnn3-c2cccc(C)c2C)c(OC)n1 (stereo not drawn) when you have a moment?
true (1)

Dear colleague, could you share the recorded outcome for `CCc1nc2c(cnn2-c2ccc(C)cc2)c(=O)n1-c1ccc(C)cc1` when you have a moment?
false (0)

Dear colleague, could you share the recorded outcome for `COc1cc(-n2c(C)nc3cc(C(=O)NCc4ccco4)ccc32)cc(OC)c1OC` when you have a moment?
false (0)

Dear colleague, could you share the recorded outcome for `Cc1ccc(C(=O)OCC(=O)NC2CCCCCCC2)cc1C` when you have a moment?
false (0)

Dear colleague, could you share the recorded outcome for `Cc1cccc(N2CCN(C(=O)c3ccc4c(c3)CCN4S(=O)(=O)c3ccccc3)CC2)c1C` when you have a moment?
false (0)

Dear colleague, could you share the recorded outcome for `COc1ccc(OC)c(-c2csc(-c3c(N)c(C(=O)c4ccccc4)n4ccccc34)n2)c1` when you have a moment?
false (0)

###

Below, each of the compounds is paired with its reported max activation value.
Test Target: D(3) dopamine receptor (Homo sapiens)
Experiment Description: qHTS of D3 Dopamine Receptor Agonist: qHTS
Condition: D3R DiscoveRx beta-arrestin cells, luminescence, 90 min; active compounds read high
Among all 410,000 compounds or so, about 2,400 (0.59%) were called active. The full list was thinned out, with actives kept by preference.
# output: bare number, implied unit %

Some compounds with known max activation results, for comparison:
>>> readout_value("COc1ccccc1C(=O)NC(CCSC)C(=O)N1CCN(C/C=C/c2ccccc2)CC1 (stereo not given)")
-0.587
>>> readout_value("O=C(Cn1cnc2c(oc3ccccc32)c1=O)Nc1ccc(OC(F)(F)F)cc1")
2.62
>>> readout_value("NC(=O)C1CCN(C(=O)COc2ccc3c4c(c(=O)oc3c2)CCC4)CC1")
-9.64
>>> readout_value("CCc1cc2c(N3CCN(c4nnc(CC)s4)CC3)ncnc2s1")
13.8

Field: next compound
Item CSCCC(NS(=O)(=O)c1ccc(C)cc1)C(=O)N1CCCC1 (stereo not given) with D(3) dopamine receptor (Homo sapiens) - max activation?
-0.577

###

Test Target: D(3) dopamine receptor (Homo sapiens) (UniProt P35462)
Sequence (P35462 whole entry, looked up): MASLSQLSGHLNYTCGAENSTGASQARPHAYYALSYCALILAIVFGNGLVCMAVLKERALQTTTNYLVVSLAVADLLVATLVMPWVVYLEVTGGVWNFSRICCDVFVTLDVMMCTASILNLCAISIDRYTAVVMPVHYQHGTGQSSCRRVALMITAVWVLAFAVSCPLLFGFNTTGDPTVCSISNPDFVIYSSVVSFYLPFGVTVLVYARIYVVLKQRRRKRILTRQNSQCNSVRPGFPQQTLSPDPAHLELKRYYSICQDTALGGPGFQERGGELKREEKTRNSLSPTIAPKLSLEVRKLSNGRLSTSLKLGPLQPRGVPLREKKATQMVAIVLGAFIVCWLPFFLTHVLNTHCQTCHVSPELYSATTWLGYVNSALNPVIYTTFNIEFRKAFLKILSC
Experiment Description: qHTS of D3 Dopamine Receptor Agonist: qHTS
Condition: D3R DiscoveRx beta-arrestin cells, luminescence, 90 min; active compounds read high
The whole screen tested about 410,000 compounds, of which about 2,400 (0.59%) were called active. The sample holds actives, similar compounds and a random draw of the others, so the mix is not that of the screen.
Below, each of the compounds is paired with its reported max activation value.

Some compounds with known max activation results, for comparison:
>>> readout_value("C/C=C/C1=C(C(=O)O)N2C(=O)[C@@H](NC(=O)[C@H](N)c3ccc(O)cc3)[C@H]2SC1")
"-0.123% (inactive)"
>>> readout_value("Cc1ccc(-c2nc3cccc(C)n3c2Nc2ccc3c(c2)OCCO3)cc1")
"-6.45% (inactive)"
>>> readout_value("O=C(c1ccco1)n1nc(-c2ccc(Cl)cc2)nc1NCc1ccccc1")
"-9.35% (inactive)"

Item `Cc1cc(C)cc(NC(=O)N(C)Cc2ccccc2)c1` with D(3) dopamine receptor (Homo sapiens) (UniProt P35462) - max activation?
-3.6% (inactive)

Item `Cc1ccc(CNC(=O)c2ccccc2CCc2ccccc2)cc1` with D(3) dopamine receptor (Homo sapiens) (UniProt P35462) - max activation?
31.4% (active)

Item `Cc1ccc(CNC(=O)[C@@H](NC(=O)Cc2ccccc2)C(C)C)cc1` with D(3) dopamine receptor (Homo sapiens) (UniProt P35462) - max activation?
-1.46% (inactive)

Item `CS(=O)(=O)NC(=O)CCC/C=C\C[C@H]1C(=O)C[C@@H](O)[C@@H]1/C=C/[C@H](O)COc1ccccc1` with D(3) dopamine receptor (Homo sapiens) (UniProt P35462) - max activation?
-14.2% (inactive)

###

Test Target: D(3) dopamine receptor (Homo sapiens) (UniProt P35462)
Experiment Description: qHTS of D3 Dopamine Receptor Agonist: qHTS
Condition: D3R DiscoveRx beta-arrestin cells, luminescence, 90 min
The whole screen tested about 410,000 compounds, of which about 2,400 (0.59%) were called active. No stated cut-off is given here; in the data, active means max activation above about 30%; inactive means the rest. Shown is part of a subset that was picked to be rich in actives.
Respond with a class label; see active, inactive

Dear colleague, could you share the recorded outcome for `CCc1nc2ccccc2n(CCOCCOCCn2c(=O)c(CC)nc3ccccc32)c1=O` when you have a moment?
inactive

Dear colleague, could you share the recorded outcome for `Cc1cccc(N2CCN(C(=O)CCSCc3ccccc3F)CC2)c1C` when you have a moment?
inactive

Dear colleague, could you share the recorded outcome for `Cc1ccc(C(=O)COC(=O)c2cccc(N3C(=O)c4c(C)nc5ccccc5c4C3=O)c2)cc1C` when you have a moment?
active

Dear colleague, could you share the recorded outcome for `COc1ccc(-c2csc(-c3c(N)c(C(=O)c4ccc(OC)c(OC)c4)n4ccccc34)n2)cc1` when you have a moment?
inactive

Dear colleague, could you share the recorded outcome for `CO[C@]1(NC(=O)CSC(F)F)C(=O)N2C(C(=O)O)=C(CSc3nnnn3CCO)CO[C@H]21` when you have a moment?
inactive
